# targetEntity: Jak2 (UniProt O60674)
# Sequence (O60674 whole entry, looked up): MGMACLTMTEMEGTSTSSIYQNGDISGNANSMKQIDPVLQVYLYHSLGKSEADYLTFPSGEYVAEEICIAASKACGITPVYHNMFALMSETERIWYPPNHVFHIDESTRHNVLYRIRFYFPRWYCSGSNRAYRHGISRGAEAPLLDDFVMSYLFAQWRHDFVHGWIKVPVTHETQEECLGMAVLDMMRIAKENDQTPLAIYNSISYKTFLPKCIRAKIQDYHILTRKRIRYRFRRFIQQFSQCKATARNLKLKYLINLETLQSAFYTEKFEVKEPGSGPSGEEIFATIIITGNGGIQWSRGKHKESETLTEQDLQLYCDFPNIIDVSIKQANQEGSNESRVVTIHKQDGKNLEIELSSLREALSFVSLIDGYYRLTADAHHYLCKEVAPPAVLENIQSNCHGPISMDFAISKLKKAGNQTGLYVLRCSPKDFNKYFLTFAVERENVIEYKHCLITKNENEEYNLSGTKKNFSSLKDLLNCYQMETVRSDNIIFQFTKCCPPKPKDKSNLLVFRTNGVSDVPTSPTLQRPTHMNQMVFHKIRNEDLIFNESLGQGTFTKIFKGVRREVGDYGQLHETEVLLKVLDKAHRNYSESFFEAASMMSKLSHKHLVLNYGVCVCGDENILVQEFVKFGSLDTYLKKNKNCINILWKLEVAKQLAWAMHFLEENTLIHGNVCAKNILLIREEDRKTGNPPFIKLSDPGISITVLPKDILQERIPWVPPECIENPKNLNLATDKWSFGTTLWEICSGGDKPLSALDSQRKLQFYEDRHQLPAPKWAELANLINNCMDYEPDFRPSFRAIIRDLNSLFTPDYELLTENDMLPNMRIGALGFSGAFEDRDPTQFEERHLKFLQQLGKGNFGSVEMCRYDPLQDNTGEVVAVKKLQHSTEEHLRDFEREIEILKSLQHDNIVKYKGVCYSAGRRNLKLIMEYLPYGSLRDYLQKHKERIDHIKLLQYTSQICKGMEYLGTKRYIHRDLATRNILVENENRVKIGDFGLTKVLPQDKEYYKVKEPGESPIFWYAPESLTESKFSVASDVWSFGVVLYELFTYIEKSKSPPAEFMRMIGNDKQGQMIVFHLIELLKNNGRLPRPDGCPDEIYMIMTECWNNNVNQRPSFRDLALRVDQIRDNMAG
# experiment: phosphorylation enrichment, bacterial display (enrichment ratio); higher = better substrate or ligand; peptides without Tyr show the background;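 also: 11-residue human phosphosite peptides and single-mutation variants displayed on the E. coli surface, counted by deep sequencing, each peptide's frequency after selection divided by its frequency in the unselected input library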;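 also: frequency after pTyr selection over input frequency; kinase dosed for 20-30% of maximal phosphorylation in three min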
# if value of phosphorylation enrichment reaches 0.6, tag rule met; if it stays below, tag rule not met

# example entries with known answers
{"inputSequence": "STEAIYRRFSK [SH3PXD2B_Y42_YF]", "targetEntity": "Jak2 (UniProt O60674)", "categoryLabel": "rule not met"}
{"inputSequence": "RNAAEYPLSSG [ABL1_Y139_L140P]", "targetEntity": "Jak2 (UniProt O60674)", "categoryLabel": "rule not met"}
{"inputSequence": "KRFAFYRDSPR [FOXE3_Y108_E103K]", "targetEntity": "Jak2 (UniProt O60674)", "categoryLabel": "rule not met"}
{"inputSequence": "FGIAQYCCRMG [LRRK2_Y2023_YF]", "targetEntity": "Jak2 (UniProt O60674)", "categoryLabel": "rule met"}
{"inputSequence": "SAEKAYHEQFS [TUBA1A_Y282_L286F]", "targetEntity": "Jak2 (UniProt O60674)", "categoryLabel": "rule met"}

Given the entry SEDSEYYKAFE [CASQ2_Y178] , answer whether its phosphorylation enrichment meets or surpasses 0.6.
rule met

Given the entry HFGCVYRGTLL [MET_Y1093_H1094R] , answer whether its phosphorylation enrichment meets or surpasses 0.6.
rule met

Given the entry PFTRNYFVWAV [CYBA_Y87_R90W_YF] , answer whether its phosphorylation enrichment meets or surpasses 0.6.
rule met

Given the entry SIKGKYVTALY [KCNH2_Y611_D609G] , answer whether its phosphorylation enrichment meets or surpasses 0.6.
rule not met

Given the entry MENFIYESMQY [CYP19A1_Y361_R365Q] , answer whether its phosphorylation enrichment meets or surpasses 0.6.
rule met

Given the entry VPVPGYTKVPE [SPRR3_Y146_L149V] , answer whether its phosphorylation enrichment meets or surpasses 0.6.
rule met

Given the entry HRNGMYGLHQD [SGSH_Y89_Q85R] , answer whether its phosphorylation enrichment meets or surpasses 0.6.
rule met

---

# targetEntity: Fes (UniProt P07332)
# Sequence (P07332 whole entry, looked up): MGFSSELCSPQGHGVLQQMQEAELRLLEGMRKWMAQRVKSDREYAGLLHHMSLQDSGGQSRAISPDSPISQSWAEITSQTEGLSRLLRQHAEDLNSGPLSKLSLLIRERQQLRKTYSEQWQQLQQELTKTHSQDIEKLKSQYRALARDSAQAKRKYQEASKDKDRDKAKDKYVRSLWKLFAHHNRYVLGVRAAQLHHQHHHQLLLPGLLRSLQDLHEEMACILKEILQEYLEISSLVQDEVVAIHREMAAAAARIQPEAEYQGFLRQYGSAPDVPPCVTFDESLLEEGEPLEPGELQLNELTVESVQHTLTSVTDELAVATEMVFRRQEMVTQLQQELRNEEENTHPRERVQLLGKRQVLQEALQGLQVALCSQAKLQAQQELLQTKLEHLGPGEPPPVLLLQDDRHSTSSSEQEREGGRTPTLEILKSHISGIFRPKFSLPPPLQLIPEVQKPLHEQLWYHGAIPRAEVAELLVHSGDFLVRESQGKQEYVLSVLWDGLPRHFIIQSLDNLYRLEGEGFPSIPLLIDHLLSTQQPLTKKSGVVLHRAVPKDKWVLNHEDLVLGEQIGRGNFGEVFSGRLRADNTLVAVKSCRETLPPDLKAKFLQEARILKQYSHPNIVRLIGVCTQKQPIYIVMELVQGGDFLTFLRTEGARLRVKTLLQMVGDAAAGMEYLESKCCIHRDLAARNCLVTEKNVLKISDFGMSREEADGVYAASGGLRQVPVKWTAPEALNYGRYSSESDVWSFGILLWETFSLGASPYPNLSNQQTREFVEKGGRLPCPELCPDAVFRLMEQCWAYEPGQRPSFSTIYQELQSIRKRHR
# experiment: phosphorylation enrichment, bacterial display (enrichment ratio); higher = better substrate or ligand; peptides without Tyr show the background
sequences and their reported phosphorylation enrichment
Lab note: write the figure by itself, no unit.

Here are 6 sequences together with their reported answers.
{"inputSequence": "TKFRNYLIPNG [CYP2C8_Y379_K383N]", "resultValue": 0.679}
{"inputSequence": "LLKANYELLNA [POLR3A_Y714_K713N]", "resultValue": 0.865}
{"inputSequence": "AEKPKYQINNI [TJP1_Y1602]", "resultValue": 0.682}
{"inputSequence": "IFETDYFQKGG [INSR_Y1189_R1191Q_YF]", "resultValue": 1.01}
{"inputSequence": "RLSVDYGKKSK [TUBA3E_Y161_S162G]", "resultValue": 0.879}
{"inputSequence": "LPHVIYCRLWR [SMAD2_Y128]", "resultValue": 0.814}

# next sequence below
Indicate the recorded phosphorylation enrichment value for this sequence: KDHPDYKYQLR [SOX10_Y171_P175L]
0.704

---

# targetEntity: Jak2 (UniProt O60674)
# experiment: phosphorylation enrichment, bacterial display (enrichment ratio); higher = better substrate or ligand; peptides without Tyr show the background
sequences and their reported phosphorylation enrichment
Lab note: write the figure by itself, no unit.

{"inputSequence": "SNKLTYGTVVF [ACOX1_Y275_M278V]", "phosphorylation enrichment": 0.685}
{"inputSequence": "LSIQCYLRASD [HMGCS2_Y262_L266S]", "phosphorylation enrichment": 2.95}
{"inputSequence": "ESFCLYPPVPQ [CYP4B1_Y377_R375C]", "phosphorylation enrichment": 0.906}
{"inputSequence": "KWELRYMHSRV [ABCD1_Y281_G277W]", "phosphorylation enrichment": 1.07}
{"inputSequence": "ELCSEYHKSRK [SPINK5_Y440_R441H]", "phosphorylation enrichment": 0.945}

Param request: phosphorylation enrichment | system Jak2 (UniProt O60674) | item MDDDQYALLTA [EFCAB6_Y675_T680A]
1.15

Param request: phosphorylation enrichment | system Jak2 (UniProt O60674) | item PANTVYSTVEI [SLAMF7_Y304]
1.47

---

sequences and their reported phosphorylation enrichment
# targetEntity: EPHB1 (UniProt P54762)
# Sequence (P54762 whole entry, looked up): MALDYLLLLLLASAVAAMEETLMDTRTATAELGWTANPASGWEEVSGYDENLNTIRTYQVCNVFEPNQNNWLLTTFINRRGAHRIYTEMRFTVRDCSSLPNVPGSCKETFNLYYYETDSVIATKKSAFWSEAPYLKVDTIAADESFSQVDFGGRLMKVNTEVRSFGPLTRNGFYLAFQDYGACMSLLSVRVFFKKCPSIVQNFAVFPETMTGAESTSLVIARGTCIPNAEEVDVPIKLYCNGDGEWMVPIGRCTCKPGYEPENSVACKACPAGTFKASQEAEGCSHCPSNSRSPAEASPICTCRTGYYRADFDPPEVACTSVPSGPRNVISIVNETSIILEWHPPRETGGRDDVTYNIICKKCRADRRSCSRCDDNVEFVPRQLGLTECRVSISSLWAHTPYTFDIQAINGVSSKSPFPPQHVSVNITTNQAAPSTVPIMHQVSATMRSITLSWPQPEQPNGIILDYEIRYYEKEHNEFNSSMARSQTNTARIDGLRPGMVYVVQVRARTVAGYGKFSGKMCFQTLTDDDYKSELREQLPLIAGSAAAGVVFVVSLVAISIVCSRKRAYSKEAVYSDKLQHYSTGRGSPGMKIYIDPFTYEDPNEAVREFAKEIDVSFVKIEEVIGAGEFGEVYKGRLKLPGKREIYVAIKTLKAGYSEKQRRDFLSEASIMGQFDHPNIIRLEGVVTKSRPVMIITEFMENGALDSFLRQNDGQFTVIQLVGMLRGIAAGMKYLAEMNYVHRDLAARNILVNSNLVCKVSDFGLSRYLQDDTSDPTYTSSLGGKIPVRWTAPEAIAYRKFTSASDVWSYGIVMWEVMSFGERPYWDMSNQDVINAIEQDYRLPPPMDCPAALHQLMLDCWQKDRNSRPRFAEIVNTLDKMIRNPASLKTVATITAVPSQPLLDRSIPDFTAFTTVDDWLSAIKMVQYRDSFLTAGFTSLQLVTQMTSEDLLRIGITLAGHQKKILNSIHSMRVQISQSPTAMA
# experiment: phosphorylation enrichment, bacterial display (enrichment ratio); higher = better substrate or ligand; peptides without Tyr show the background
Lab note: write the figure by itself, no unit.

Here are 3 sequences together with their reported answers.
{"inputSequence": "HPYNSYTYPRL [PAK5_Y316_S312P]", "phosphorylation enrichment": 0.731}
{"inputSequence": "ENELTYYCCKK [CD59_Y86]", "phosphorylation enrichment": 0.505}
{"inputSequence": "PPVVNYEQDAR [FER_Y402_E404Q]", "phosphorylation enrichment": 1.01}

Indicate the recorded phosphorylation enrichment value for this sequence: MNKNAYHNVTT [ST3GAL6_Y306_A311T]
0.358

Indicate the recorded phosphorylation enrichment value for this sequence: PQDVTYAQLHS [LILRB4_Y412]
1.22

Indicate the recorded phosphorylation enrichment value for this sequence: GYCSWYRGWAP [TIMP3_Y195]
0.8

Indicate the recorded phosphorylation enrichment value for this sequence: LPPGTYPSDFT [UNC5B_Y511_A516T]
0.694

---

# Test system: AncSZ
# experiment: phosphorylation enrichment, bacterial display (enrichment ratio); higher = better substrate or ligand; peptides without Tyr show the background
sequences and their reported phosphorylation enrichment
Lab note: write the figure by itself, no unit.

{"inputSequence": "ADLAKYICENR [ALB_Y287_Q292R]", "phosphorylation enrichment": 0.84}
{"inputSequence": "TENAGYFFQVS", "phosphorylation enrichment": 1.11}
{"inputSequence": "KRFAFYRDSPR [FOXE3_Y108_E103K]", "phosphorylation enrichment": 0.538}
{"inputSequence": "VVSLFYGTALF [OR10C1_Y251_M246V]", "phosphorylation enrichment": 1.25}
{"inputSequence": "FFLGKYLQEVL [KLB_Y910_YF]", "phosphorylation enrichment": 0.963}
{"inputSequence": "CTTIHYNFMCH [TP53_Y234_N239H_YF]", "phosphorylation enrichment": 0.866}

Indicate the recorded phosphorylation enrichment value for this sequence: NHFKICNLCAE [PTEN_Y68_Y68C_YF]
0.609

Indicate the recorded phosphorylation enrichment value for this sequence: QLYGAYLRIHA [BSCL2_Y213]
1.95

Indicate the recorded phosphorylation enrichment value for this sequence: LKGQVYILGWE [ASS1_Y359_R363W]
1.14

Indicate the recorded phosphorylation enrichment value for this sequence: SFCFRYRCAAQ [SUMF1_Y344_R349Q_YF]
1.25

Indicate the recorded phosphorylation enrichment value for this sequence: RDLRTYIMPAH [PNMT_Y256]
0.921

Indicate the recorded phosphorylation enrichment value for this sequence: TRSYDYMEGED [FGF7_Y58_G62E]
1.41

Indicate the recorded phosphorylation enrichment value for this sequence: ELCSEYHKSRK [SPINK5_Y440_R441H]
0.73

Indicate the recorded phosphorylation enrichment value for this sequence: PVQAVYQKVVA [HBB_Y131_A130V]
0.373

---

# targetEntity: Hck (UniProt P08631)
# Sequence (P08631 whole entry, looked up): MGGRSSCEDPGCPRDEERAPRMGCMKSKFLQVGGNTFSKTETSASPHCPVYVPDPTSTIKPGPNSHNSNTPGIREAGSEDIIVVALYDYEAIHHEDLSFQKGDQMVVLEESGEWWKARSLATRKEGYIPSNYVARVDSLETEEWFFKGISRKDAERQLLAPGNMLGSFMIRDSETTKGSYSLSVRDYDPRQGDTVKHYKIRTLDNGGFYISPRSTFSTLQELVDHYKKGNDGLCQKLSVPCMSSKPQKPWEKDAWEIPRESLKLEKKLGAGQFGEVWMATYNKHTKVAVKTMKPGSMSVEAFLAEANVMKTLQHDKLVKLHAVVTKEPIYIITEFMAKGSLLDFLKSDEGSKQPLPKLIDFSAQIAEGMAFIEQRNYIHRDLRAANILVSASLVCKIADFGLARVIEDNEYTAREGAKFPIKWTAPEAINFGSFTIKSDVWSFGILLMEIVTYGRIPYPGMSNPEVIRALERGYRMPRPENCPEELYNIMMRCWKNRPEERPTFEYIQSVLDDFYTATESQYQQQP
# experiment: phosphorylation enrichment, bacterial display (enrichment ratio); higher = better substrate or ligand; peptides without Tyr show the background
sequences and their reported phosphorylation enrichment
Lab note: write the figure by itself, no unit.

Here are 10 sequences together with their reported answers.
{"inputSequence": "CYVYYYSYLLK [PTEN_Y178_R173C]", "phosphorylation enrichment": 0.949}
{"inputSequence": "RAKLFYQEVPA [METTL11B_Y76]", "phosphorylation enrichment": 1.67}
{"inputSequence": "QGIIIYKAAYF [SLC25A4_Y187_R188K]", "phosphorylation enrichment": 0.647}
{"inputSequence": "EIRTQYEAMAS [GFAP_Y242]", "phosphorylation enrichment": 0.534}
{"inputSequence": "RGVAHYILQTF [SLC39A4_Y359_T357A]", "phosphorylation enrichment": 0.685}
{"inputSequence": "RLQEGYDHSYY [ESD_Y258]", "phosphorylation enrichment": 0.611}
{"inputSequence": "TTTQAYRVDER [PRKN_Y391]", "phosphorylation enrichment": 0.446}
{"inputSequence": "ALEKTYNTYRS [B4GALNT2_Y538]", "phosphorylation enrichment": 0.438}
{"inputSequence": "CTSIHYNYMCN [TP53_Y234_T231S]", "phosphorylation enrichment": 0.514}
{"inputSequence": "LDCNEYFRDLN [HPRT1_Y198_Y195C]", "phosphorylation enrichment": 0.911}

Indicate the recorded phosphorylation enrichment value for this sequence: AAVPAYDKIQV [STXBP2_Y401_R405Q]
1.09

Indicate the recorded phosphorylation enrichment value for this sequence: RVFIKYLPEWT [PSEN1_Y240_L235R]
0.944

Indicate the recorded phosphorylation enrichment value for this sequence: SVVVPYEPSEV [TP53_Y220_P223S]
0.6

Indicate the recorded phosphorylation enrichment value for this sequence: AHLLQYNHQVK [LGALS3_Y221_R224Q]
0.508
